test-description: chemical genetic growth profiling, strain panel (AID 1159580);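 note: tested at 20 µM; growth read once vehicle control cultures reached saturation at 30 °C; 1 = growth at the plate median or of vehicle wells; lower values mean less growth of the strain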
stated-conditions: S. cerevisiae deletion strains, growth OD, locus YLR268W, strain sec22, active compounds read low
Hit rate of the full screen: of about 5,500 compounds, about 2,000 (36%) were called active. About 18% were inconclusive and are not listed. This is one part of the list.
Measured normalized growth, listed per entry for reference.
parameter: normalized growth

- COc1cc(C(=O)O[C@H]2CC[C@@]3(C)[C@@H]4CC[C@H]5[C@]6(O)C[C@H](O)[C@@]7(O)[C@@H](CN8C[C@@H](C)CC[C@H]8[C@@]7(C)O)[C@]6(O)C[C@@]53O[C@]24O)cc(OC)c1OC: 1.04
- OC(CCN1CCCC1)(c1ccccc1)C1CCCCC1 (stereo not given): 0.946
- CCC(C)C(NC)C(=O)O (stereo not given): 1.03
- Cc1ccc(-c2cc(C(F)(F)F)nn2-c2ccc(S(N)(=O)=O)cc2)cc1: 1.08
- NC(N)=N/N=C/c1c(Cl)cccc1Cl: 1

====

Measured normalized growth, listed per entry for reference.
test-description: chemical genetic growth profiling, strain panel (AID 1159580)
stated-conditions: S. cerevisiae deletion strains, growth OD, locus YMR231W, strain pep5, active compounds read low
The whole screen tested about 5,500 compounds, of which about 2,000 (36%) were called active. Another 18% or so got no clear call; they are omitted. The list shows a part of the results.
parameter: normalized growth

- C[C@H]1[C@H](C)CC[C@]2(CO)CC[C@]3(C)C(=CCC4[C@@]5(C)CC[C@H](O)C(C)(C)C5CC[C@]43C)[C@H]12 (stereo partly drawn): 1
- COc1c(-c2coc3cc4c(cc3c2=O)CC(OC(C)=O)C(C)(C)O4)ccc2c1C=CC(C)(C)O2 (stereo not drawn): 1.03
- CC1(C)CCC2(C(=O)O)CCC3(C)C(=CCC4C5(C)CCC(O)C(C)(C)C5C(O)CC43C)C2C1 (stereo not drawn): 1.02
- COC(=O)Nc1nc2ccc(C(=O)c3ccccc3)cc2[nH]1: 0.955
- COC(=O)Nc1nc2ccc(S(=O)c3ccccc3)cc2[nH]1 (stereo not drawn): 0.98
- CC1(C)CC[C@@]2(C(=O)O)C(C1)C1=CCC3[C@@]4(C)CC[C@H](O)C(C)(C)C4CC[C@@]3(C)[C@]1(C)C[C@@H]2O (stereo partly drawn): 1.01
- C[C@@H]1CC[C@]2(C(=O)O)CC[C@]3(C)C(=CCC4[C@@]5(C)CC[C@H](O)C(C)(C)C5CC[C@]43C)C2[C@H]1C (stereo partly drawn): 0.998
- O=C(CNC(=O)c1ccc(Cl)cc1)NO: 1.02

====

test-description: chemical genetic growth profiling, strain panel (AID 1159580)
stated-conditions: S. cerevisiae deletion strains, growth OD, locus YDL185W, strain tfp1, active compounds read low
Among all 5,500 compounds or so, about 2,000 (36%) were called active. Roughly 18% stayed inconclusive and do not appear here. Some of the results follow.
parameter: normalized growth

* Nc1c2c(nc3ccccc13)CCCC2 | 1.01
* CC(=O)OC1CC[C@@]2(C)C(CC[C@]3(C)C2CCC2C4CC(C)(C)CCC4(C(=O)O)CC[C@]23C)C1(C)C (some centres not stated) | 0.934
* CC(=O)O[C@@H]1CC[C@@]2(C)C(CC[C@]3(C)C2CC=C2C4CC(C)(C)CC[C@]4(C(=O)O)CC[C@]23C)C1(C)C (some centres not stated) | 0.976
* C[C@@H]1OC(O[C@H]2[C@H](O)[C@@H](O)[C@H](OC[C@H]3O[C@@H](OC(=O)[C@]45CCC(C)(C)CC4C4=CCC6[C@@]7(C)CC[C@H](OC8OC[C@H](O)[C@H](O)[C@H]8OC8O[C@@H](C)[C@H](O)[C@@H](O)[C@H]8O)[C@@](C)(CO)C7CC[C@@]6(C)[C@]4(C)CC5)[C@H](O)[C@@H](O)[C@@H]3O)O[C@@H]2CO)[C@H](O)[C@H](O)[C@H]1O (some centres not stated) | 0.97
* Nc1c2c(nc3ccccc13)CCCC2O (configuration not stated) | 0.964
* COc1ccc2[nH]cc(CCN)c2c1 | 0.97
* N=C(N)c1ccc(OCCCCCOc2ccc(C(=N)N)cc2)cc1 | 0.964

====

test-description: chemical genetic growth profiling, strain panel (AID 1159580);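 note: tested at 20 µM; growth read once vehicle control cultures reached saturation at 30 °C; 1 = growth at the plate median or of vehicle wells; lower values mean less growth of the strain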
stated-conditions: S. cerevisiae deletion strains, growth OD, locus YHR079C, strain IRE1
About 2,000 (36%) of roughly 5,500 compounds were called active. Roughly 18% stayed inconclusive and do not appear here. Rule as the data show it: active = normalized growth mostly below about 0.91 (no sharp cut-off); inconclusive = no clear call, values can overlap the other calls; inactive = mostly above about 0.92. Some of the results follow.
Labels: active, inactive

- Cc1cc(O)cc(O)c1C(=O)O: inactive
- Cc1cc(O)cc(=O)o1: inactive
- Cc1cc(O)cc(C)c1Cl: inactive
- O=C(Nc1ccccc1Sc1ccc([N+](=O)[O-])cc1[N+](=O)[O-])C(Cl)(Cl)Cl: inactive
- NNc1nncc2ccccc12: inactive
- C[C@@H]1OC(O[C@H]2[C@H](O)[C@@H](O)[C@H](OC[C@H]3O[C@@H](OC(=O)[C@]45CCC(C)(C)CC4C4=CCC6[C@@]7(C)CC[C@H](OC8OC[C@H](O)[C@H](O)[C@H]8OC8O[C@@H](C)[C@H](O)[C@@H](O)[C@H]8O)[C@@](C)(CO)C7CC[C@@]6(C)[C@]4(C)CC5)[C@H](O)[C@@H](O)[C@@H]3O)O[C@@H]2CO)[C@H](O)[C@H](O)[C@H]1O (some centres undefined): inactive
- Cc1cc(O)ccc1Cl: inactive
- Clc1ccccc1C(c1ccccc1)(c1ccccc1)n1ccnc1: active
- Clc1ccc2c(c1)c1ccccc1n2CN1CCOCC1: inactive

====

test-description: chemical genetic growth profiling, strain panel (AID 1159580);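 note: tested at 20 µM; growth read once vehicle control cultures reached saturation at 30 °C; 1 = growth at the plate median or of vehicle wells; lower values mean less growth of the strain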
stated-conditions: S. cerevisiae deletion strains, growth OD, locus YJL129C, strain trk1
Hit rate of the full screen: of about 5,500 compounds, about 2,000 (36%) were called active. Another 18% or so got no clear call; they are omitted. Rule as the data show it: active = normalized growth mostly below about 0.91 (no sharp cut-off); inconclusive = no clear call, values can overlap the other calls; inactive = mostly above about 0.92. This is one part of the list.
Labels: YES for active, NO for inactive

• CCCCCCCCCCCC[C@H](C(=O)O)[C@@H](C)C(=O)O = YES
• CC(=O)NC(C(=O)O)C(C)(C)SN=O (stereo unspecified) = NO
• Cc1cn([C@H]2C[C@H](N=[N+]=[N-])[C@@H](CO)O2)c(=O)[nH]c1=O = NO
• CNC(=O)O/N=C\C(C)(C)SC = NO
• COc1cccc2c1C(=O)c1c(O)c3c(c(O)c1C2=O)C[C@@](O)(C(=O)CO)C[C@@H]3OC1C[C@H](N)[C@H](O)[C@H](C)O1 (stereo partly specified) = YES
• COc1ccc2[nH]cc(CCN)c2c1 = NO
• COc1cccc2c1C(=O)c1c(O)c3c(c(O)c1C2=O)C[C@@](O)(C(=O)CO)C[C@@H]3O[C@H]1C[C@H](N)[C@@H](O)[C@H](C)O1 = YES
• CCCCCCCCCCCCCCC(C(=O)O)C(O)(CC(=O)OC)C(=O)O (stereo unspecified) = YES
• CCOC(=O)OC(C)OC(=O)C1N2C(=O)C(NC(=O)[C@H](N)c3ccccc3)C2SC1(C)C (stereo partly specified) = NO
• O=C(O)CC(O)(CC(=O)O)C(=O)O = NO
• NCCC(=O)N[C@@H](Cc1cnc[nH]1)C(=O)O = NO

====

Measured normalized growth, listed per entry for reference.
test-description: chemical genetic growth profiling, strain panel (AID 1159580);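 note: tested at 20 µM; growth read once vehicle control cultures reached saturation at 30 °C; 1 = growth at the plate median or of vehicle wells; lower values mean less growth of the strain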
stated-conditions: S. cerevisiae deletion strains, growth OD, locus YMR205C, strain PFK2, active compounds read low
The whole screen tested about 5,500 compounds, of which about 2,000 (36%) were called active. Roughly 18% stayed inconclusive and do not appear here. Some of the results follow.
parameter: normalized growth

- C[C@@H]1OC(O[C@H]2C(O[C@H]3CC[C@@]4(C)C(CC[C@]5(C)C4CC=C4C6CC(C)(C)CC[C@]6(C(=O)O)CC[C@]45C)[C@]3(C)CO)OC[C@H](O)[C@@H]2O)[C@H](O)[C@H](O)[C@H]1O (stereo partly specified): 0.0864
- COc1cc(N)c(Cl)cc1C(=O)NC1CCN(Cc2ccccc2)CC1: 0.997
- O=C1C(O)=C(O)C(=O)C(O)=C1O: 1
- CC1(C)CC(O)C2(C)CCC3(C)C(=CCC4C5(C)CCC(O)C(C)(CO)C5CCC43C)C2C1 (stereo unspecified): 1.03
- C#C[C@]1(OC(C)=O)CCC2C3CCC4=CC(=O)CC[C@@H]4C3CC[C@@]21C (stereo partly specified): 0.984
- Cc1cc(O)cc(=O)o1: 1.01
- NNC(=O)c1ccncc1: 1.03
- NC(Cc1c[nH]c2ccccc12)C(=O)O (stereo unspecified): 1.03
- C#C[C@]1(O)CCC2C3CCC4=CC(=O)CC[C@@H]4C3CC[C@@]21CC (stereo partly specified): 0.989
- Cc1cc(O)cc(O)c1C(=O)O: 1
- CC(C)(Oc1ccc(CCNC(=O)c2ccc(Cl)cc2)cc1)C(=O)O: 0.977
